Ref: the nanobody polyreactivity screen of Harvey et al. (2022)

# TEST SUMMARY: yeast display, Sf9 membrane polyspecificity reagent, FACS + sequencing; frameworks hold sequencing errors
QUANTITY MEASURED: polyreactivity (PSR sort gate)

# MONOMER SEQUENCE, RESULT
rows = [
    ("QVQLQESGGGQVLAGGSLRVSCAASGYIPYSRWMGWNRQAPGKEREFVAGIGYGSSTYYADSVKGRFTISRDNAKNTVYLQMNSLKPEDTAVYYCNASIFFRRNVTQVRMDYWGQGSQVTVSS", "high polyreactivity"),
    ("QVQLVESGGGLVQAGGSLRLSCAASGSIFGWYGMGWYRQAPGKERELVAAINWGGTNTYYADSVKGRFTISRDNAKNTVYLQMISLKPEDTAVYSCNADIPRRPNRHYLYDYWGQATQVTVSS", "low polyreactivity"),
    ("QVQLVESGGGLVQAGGSLRLSCAASGSTSETYAMGWYRQAPGKERELVAAISGNGASTYYADSVKGRFTISRDNAKNTVYLQMNSLKPDDTAVYYCAAYFYYWGSTFVRYEYWGQGTQVTVSS", "high polyreactivity"),
    ("QVQLVESGGGLVQAGGSLRLSCAASGSTFDYYAMGWYRQAPGKERELVATISYSDGTTYYADSVKGRFTISRDNAKNTVYLQMNSLKPEDTAVYYCAADTYVYEEQNVWRMDYWGQGTQVTVSS", "low polyreactivity"),
    ("QVQLVESGGGLVQAGGSLRLSCASSGRTFSPYAMGWYRQAPGKERELVAAISSGGGNTYYADSVKGRITISRDNAKNTVYLQMNSLKPVDTAVYYCNAAQRRGGLGYWGLGTQVTVSS", "high polyreactivity"),
]

* * *

# TEST SUMMARY: yeast display, Sf9 membrane polyspecificity reagent, FACS + sequencing; frameworks hold sequencing errors

# MONOMER SEQUENCE, polyreactivity (PSR sort gate)
rows = [
    ("QVQLVDSGGGLVQAGGSLRLSCAASGRISNYYAMGWYRQAPGKERELVAAITRSGGSTYYADSVKGRFTISRDNAKNTVYLQMNSLKPEDTAVYYCATDWTVRYDYWGQGTQVTVSS", "high polyreactivity"),
    ("QVQLVESGGGLVQAGGSLRLSCAASGSILYWNAMGWYRQAPGKERELVADITWRGGSTYADSVKGRFTISRDNAKNTVYLQMNSLKPEDTAVYYCNAVPVRGSAPRYRQTYSYWGQGTQVTVSS", "high polyreactivity"),
    ("QVQLLESRGGLVQAGGSLRLSCAASGSIFYIYAIGWYRQAPGKEREFVAAIRQSDGRTYYADSVKGRFTISRDNAKNTVYLQRTSLNPEDTAVYYCAAQYPVNYIWGYNDWGQGTQVTVSS", "high polyreactivity"),
    ("QVQLVESGGGLVQAGGSLRLSCAATGIIFKRYTMGWYRQAPGKERELVATINSGTRTYADSVKGRFTISRDNAKNTVYLQMNSLKPEDTAVYYCARRGYYYDYWGLGTQVTVSS", "high polyreactivity"),
    ("QVQLVESGGGLFQAGGSLRITCAASGITFSYNAMGWYRQAPGKVRELVAGITWSGGSTYYADSVTGRFTISRDNAKNTVYLQMYSVKREDTAVYYCAASRSFPGYGLYYYWGQGTQVTVSS", "low polyreactivity"),
    ("QFQLVESGGGLVQAGGSLRLSCAASAGNFNRYAMGWYRQAPGKEMELVAAISSSGGPTYYADSVKGRFTISRDNAKNTVYLQMNSLKPEDSAVYYCNARYPRLHRTYNYWGQGTQVTVSS", "high polyreactivity"),
    ("QVQLVESGGGLVQAGGSLRLSCAPSGSIFLHYAMGRYRQAPGKERDLVAAISRSGGRTYYADSVKGRFTISRDNAKNTVYLQMNSLKPEDTAVYYCAARVPRYRKDSVWAYYYWGQGTQVTVSS", "high polyreactivity"),
    ("QVQLVDSGGGLVQAGGSLRLSCAASGFIFTDYAMGLYRQAPGQEREFVAAIDWSGGNTYYADSVTGRFTISRDNAKNTVYLQMNSLKPEDTAVFYCAASGSAREYVYWGQGTQVTVSS", "low polyreactivity"),
    ("QVQLVESGGGLVQAGGSLRLSCAASGRIFYNYAMGWSRQAPGKERELVAAISGSGGSTYYADSVKGRFTISRDNAKNTVYLQMNSLKPEDTAVYYCSTSGPQYYSRNFDYWGQGTQVTVSS", "low polyreactivity"),
    ("QVQLVESGGGLVQAGGSLRLSCAASGRTFGKYAMGWYRQAPGKERELVATISLSGGSTYYADSVKGRFTISRDNAKNTVYLQMNSLKPEDTAVYYCAARRKFDYWGQGTQVTVSS", "high polyreactivity"),
    ("QVQLVESGGGLVQAGGSLRLSCAASGSTLALNAIGWYRQAPGKEREFVADISWSGGDTYYADSVKGRFTISRDNAKNTVYLQMNILKPEDTAVYYCATDFSYQFQALEDDYWGQGTQVTVSS", "low polyreactivity"),
]

* * *

# TEST SUMMARY: yeast display, Sf9 membrane polyspecificity reagent, FACS + sequencing; frameworks hold sequencing errors
QUANTITY MEASURED: polyreactivity (PSR sort gate)

# MONOMER SEQUENCE, RESULT
rows = [
    ("QVQLVESGGGLVQAGGSLRLRCAASGKTFSWYALGWYRLAPGKERELVAVITSGGSTNYADSVKWRFTISRDNAKNTVYLQMNSLKPEDTAVYYCNRRPYGFEEFDYWGQGTQVTVSS", "low polyreactivity"),
    ("QVQLVESGGGLFQAGGSLRLSCAASGSTLAGYTMGWYRQAPGKERELVASISFTGGSTYYADSVKGRFTISRDNAKNTVYLQMNSLKPEDTAVYYCAAGTWQYYFLYDTYRRYYYWGQGTQVTGSS", "high polyreactivity"),
    ("QVQLVESGGGLVQAGGSLRLSCAASGSIFYLYALGWYRQAPGKERELVAAISSSGGRTYYADSVKGRFTISRDNAKNTVYLQMNSLKPEDTAVYYCAARYWAKYSYGYWGQGTQVTVSS", "high polyreactivity"),
    ("QVQLVESGGGLVQAGGSLRLSCAASGSTFPIYAMGWYRQAPGKERELVAAITWRGGSRTYYADSVKGRFTISRDNAKNTVYLQMNSLKPEDTAVYYCAAEYQWPLYGYWGQGTQVTVSS", "low polyreactivity"),
    ("QVQLVQSGGGLVQAGGSLRLSCAASGSIFGYYAMGWYRQAPGKERELVAVITSVATTNYADSVKGRFTISRDNAKNTVYLQMNSLKPEDTAVYYCAARPQVKRGRYGYWGQGTQVTVSS", "low polyreactivity"),
]

* * *

# TEST SUMMARY: yeast display, Sf9 membrane polyspecificity reagent, FACS + sequencing; frameworks hold sequencing errors
QUANTITY MEASURED: polyreactivity (PSR sort gate)

# MONOMER SEQUENCE, RESULT
records = [
    ("HVQLVESGGGLVQAGGSLRLSCAASGSTFSYNAMGWYRQAPGKEWELVAAISWRGTSTYYADSVKGRFTISRDNAKKTVYLQMNSLKPEDTAVYYCAAPYGVSYKGATYDSWGQGTQVTVSS", "high polyreactivity"),
    ("QVQLVESGGGLVQAGGSLRLSCAASGGTIDYAMGWYSQAPGKERELVAAISKHGGRTYYADSVKGRFTISRDNAKYTVYLQMNSLKPEDTAVYYCAADAFRGFYWGQGTQVTVSS", "high polyreactivity"),
    ("QVPLVESGGGLVQAGGSLRLSCAASGSIFRNYALGWYRQAPGKERELVAGITQRGGRTYYADSVKGRFTSSRDNAKNTVYLQLNSLKPEDTAVYYCAASYRGVPEYDSWGQGTQVTVSS", "high polyreactivity"),
    ("QVQLVESGGGLVQAGGSLRLSCAASGPIFTSNAMGWYRQAPGKERELVAAISRRGTRTYYADSVKGRFTISRDNAKNTVYLQMNSLKPEDTAVYYCAATTGEQEYYWGQGTQVTVSS", "high polyreactivity"),
    ("QVQLVESGGGLVQAGGSLRLSCAASGSTFPYNAMGWYRQAPGKERELVAAISWSGGRTYYADSVKGRFTISRDNAKNTVYLQMNSLKPEDTAVDYCAKAVKQYGFYYWGQGTQVTVSS", "high polyreactivity"),
    ("QVQLVESGGGLVQAGGSLRLSCAASGRTFNSYAMGWYRQAPGKERELVAGITGTGGSTYYADSVKGRFTISRDNAKNTVYLQMNSLKPEDTAVYYCNALRRCQRYWDPYGYDYWGQGTQVTVSS", "high polyreactivity"),
    ("QVQLVESGGGLVQAGGSLRLSCAASGSTLLFYAMGWYRQAPGKEREFLATITFRGGSTYYADSVKGRFTISRDNAKNTVYLQMNSLKPEDTAVYYCNAGSRRGYYRSRPGGYCGQGTQVTVSS", "high polyreactivity"),
    ("QVQLVESGGGLVQAGGSLRLSCPAYGSTFGEYAMGWYRQKPGKERELVATITSAGSTYYADSVKGRFTISRDNAKNTVYLLMNSLKPEDTAVYYCAVDPISQGHMDYWGQGTQVTVSS", "low polyreactivity"),
    ("QVQLVESGGGLVQAGGSLRLSCSASGSTLAKYAMGWYRQAPGKERELVAAISWSGGRTYYADSVKGRFTISRDNAKNTVYLPMNSLKPEDTAVYYGAARALSSRTYHDDYWGQGTQVTVSS", "high polyreactivity"),
    ("QVQLVESGGGLVQAGGSLRLSCAASGNIFDSYGMGWYRQAPGKERELVATINTSSGSTYYADSVKGRFTISRDNAKNTVYIQMNSLKPEDTAVYYCAAEWYPYTWGYGYWGQGTQVTVSS", "low polyreactivity"),
    ("QVQLVESGGCLVQAGGSLRLSCAASGRIFPGYAMVWYRQAPGKERELVAAISASGGSTYYADSVKGRFTISRDNAKNSVYFQIISLKPEDTAVYYCNAVYRLIRFDYWGQGSQVTVSS", "high polyreactivity"),
    ("QVQLVESGGGLVQAGGSLRLSCAASGRILVTYAMGWYRQAPGKERELVAAITRGTNTNYADSVKGRFTISRDNAKNTVYLQMNSLKPEDTAVYYCAARRYRYRYGYGGDYWGQGTQVTVSS", "high polyreactivity"),
    ("QVQLVESGGGLVQAGGSLRLSCAASGSILASYAMGWYRPAPGKERELVAAISWNGARSYYADSVKGRFTISRDNAKNTVYLQMNSLKPEDTAVYYCAGVRVGRTTFDYWGQGTQVTVSS", "low polyreactivity"),
    ("QVQLVESGGGLVQAGGSLRLSCAASGRTFPYYAMGWYRQAPGKERELVAAISSSGGRTYYADSVKGRFTISRDNAKNTVYLQMNSQKPEDTAVYYCAAQTPGVYLRQIGGYYYWGQGTQVTVSS", "low polyreactivity"),
    ("QVQLVESGGGLVQAGGSLRLSCAASGRIFRSYAMGWYRQAPGKERELVAAISGSGGSTYYADSVKGRFTISRDNAKNTVYLQMNSLKPEDTAVYYCNRARGASYHGQSDYWGQGTQVTVSS", "high polyreactivity"),
    ("QVQLVESGGGLVQAGGSLRLSCAASGYIFGVYAMGWYRQAPGKERELVAAISYGVGSTYYADSVKGRFTISRDNAKNTVYLQMNSLKPEDTAVYYCAADVFFYVYEAYLLYYWGQGTQVTVSS", "low polyreactivity"),
    ("QVQLVESGGGLVQAGGSLRLSCAASGNIFWWNAMGWYREATRKERELVAAITSDSTTYYADSVKGRFTISRDNAKNTVYLQMKSLKPEDTAVYYCAAYSYGGQGVDYGYWGQGTQVTVSS", "low polyreactivity"),
    ("QVQLVESGGGLVQAGGSLRLSCAASGSTFNLYAIGWYRQAPGKEREFVAAIRGRGGNTYADSVKRRFTISRDNAKNTVYLQMNSLKPEDTAVYYCAAPLLRDLRSPYSYKYWGQGTQVTVSS", "low polyreactivity"),
    ("QVQLVESGGGLVQAGGSLRLSCAASGIIFFDYAMGWYRQAPGKERELVAAITSSGGSTYYADSVKGRFTISRDNAKNTVYLQMNSLKPEDTAVYYCAAATRGSGRRNDYWGQGTQVTVSS", "high polyreactivity"),
    ("QVQLVESGGGLVQAGGSLRLSCAASGSTFALYTMGWYRQAPGKERELVAAIRYGGGSTYYADSVKGRFTISRDNAKNTVYLQMNSLKPEDTAVYYCARDLYNLYSGSYYWGQGTQVTVSS", "low polyreactivity"),
    ("QVQLVESGGGLVQAGGSLRLSCAASGLILYFNARGWYRQAPGKERELVADISSSGSSTYYADSVKGRFTISRDNAKNTVYLQMNSLKPEDTAVYYCAAGYYGEYWRSWYDYWGQGTQVTVSS", "low polyreactivity"),
]
